The reader will find reported growth inhibition values listed item by item below.
Assay: NCI Yeast Anticancer Drug Screen. Data for the sgs1 mgt1 strain (AID 161);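 also: 0% = growth of cultures given vehicle only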
Conditions: S. cerevisiae sgs1 mgt1 strain, active compounds read high; at 50.0 µM unless noted
Description: Growth inhibition of yeast strains with defined genetic alterations is measured as a screen for potential anti-cancer activity. Selected strains with alterations in DNA damage repair or cell cycle control were exposed to compounds and growth inhibition was measured relative to vehicle treated controls. The strain used in this assay is sgs1 mgt1
About 79,000 compounds went through this panel and 15% of them were active in at least one assay; those are over-represented in the sample as a whole.
quantity_kind: growth inhibition (%)

> print(dat)
                                    molecule  endpoint.result
 1     CN1C(=O)C/C(=C/[N+](=O)[O-])c2ccccc21              4.2
 2  O=C(/C(=C/c1ccccc1)c1ccccc1)N1c2ccccc2CC1c1c[nH]c2ccccc12 (stereo not given)            -10.9
 3                        CSc1ncn(C)c1C(N)=O              1.5
 4  N#CC(C(=O)CCC(=O)C(C#N)c1ccccc1)c1ccccc1 (stereo not given)              1.2
 5  O=C(CCCl)Nc1ccc(C(=O)CCc2cccc(NC(=O)CCCl)c2)cc1             7.75
 6                        CC(=O)C[N+](C)(C)C            -14.8
 7             CC(=O)NCCc1c[nH]c2ccc(Cl)cc12            -27.4
 8   CC(=O)Oc1ccccc1C(=O)N(N)CCSc1ccc(Cl)cc1             11.2
 9  CCN(CC)CCNc1ccc2ncn3c4cc(=O)ccc4c(O)c1c23            -46.4
10  O=c1[nH]c(=O)n(C2OC(CO)C(O)C2O)c2ccccc12 (stereo not given)               -8
11                Clc1ccccc1/C=N\N=C\c1ccco1            -9.05
12      O=C(NCCNC(=O)C(Br)(Br)Br)C(Br)(Br)Br               58
13                         CCCCCC[N+](C)(C)C              2.7
14       COc1ccc(/C=C2\C(=O)Nc3ccccc32)cc1OC               -9
15  OCCCC(O)CCC(O)CCC(O)CCCO (stereo not given)             9.15
16                   CCCC(=O)CC(=O)Nc1ccccc1            -14.9
17  O=C(NC12CC3CC(CC(C3)C1)C2)C(=O)c1c[nH]c2ccc([N+](=O)[O-])cc12            -50.6
18  Cc1ccc(S(=O)(=O)N(C)c2ccc3c(c2)C(=O)c2ccccc2-3)cc1               37
19                       O=C(CCCCl)N1CCCCCC1            -17.5
20  COc1ccccc1NC(=O)C1=C(C)NC(C)=C(C(=O)Nc2ccccc2OC)C1c1ccc(C)cc1             3.75
21  Cc1nc2c3c(ccc2[nH]c1=O)C(=O)c1ccccc1C3=O             17.7
22  NC(=O)c1ccccc1NC(=O)C(=O)C(C(=O)c1ccc(Cl)c(Cl)c1)C1OC(=O)c2ccccc21 (stereo not given)             32.9
23     C[N+]1(Cc2csc(-c3ccc(Cl)cc3)n2)CCOCC1             10.5
24   N=C(N)c1ccc(NC(=S)Nc2ccc(C(=N)N)cc2)cc1             32.1
25                        CCNC(=O)CCCC(=O)OC             18.9
